Molecular target: UniProt:O75643
Assay: Inhibition of full length recombinant human N-terminal His-tagged BRR2 RNA dependent ATPase activity expressed in baculovirus infected Sf9 cells using single stranded poly(U) RNA as substrate after 30 mins by ADP-Glo luminescence assay
pIC50: −log10 of the molar value.
PROPERTY MEASURED: pIC50

# example entries with known answers
COMPOUND	PROPERTY MEASURED	MEASURED NUMBER
CC(C)C[C@@H]1C[C@H](C)[C@@]2(C(=O)Nc3ccc(F)cc32)N1C(=O)c1cn(C)cn1	pIC50	4.08
CC(C)C[C@H]1C[C@@H](C)[C@]2(C(=O)Nc3ccc(F)cc32)N1C(=O)c1cn(Cc2ccccc2)cn1 (racemic)	pIC50	7.62
CC(C)C[C@H]1C[C@@H](C)[C@]2(C(=O)Nc3ccc(F)cc32)N1C(=O)c1cn(Cc2ccccc2)cn1	pIC50	7.96

(a) CC(C)C[C@H]1C[C@@H](C)[C@]2(C(=O)Nc3ccc(F)cc32)N1C(=O)c1cn(C)cn1
(b) CC(C)C[C@H]1C[C@@H](C)[C@]2(C(=O)Nc3ccc(F)cc32)N1C(=O)c1cn(C)cn1 (racemic)
Which is greater in pIC50, the first item a or the second item b ? Kindly give the label for the entry you pick.
a
(a: 7.68, b: 7.38)

----------
Target: U5 small nuclear ribonucleoprotein 200 kDa helicase (Homo sapiens)
Sequence (O75643 whole entry): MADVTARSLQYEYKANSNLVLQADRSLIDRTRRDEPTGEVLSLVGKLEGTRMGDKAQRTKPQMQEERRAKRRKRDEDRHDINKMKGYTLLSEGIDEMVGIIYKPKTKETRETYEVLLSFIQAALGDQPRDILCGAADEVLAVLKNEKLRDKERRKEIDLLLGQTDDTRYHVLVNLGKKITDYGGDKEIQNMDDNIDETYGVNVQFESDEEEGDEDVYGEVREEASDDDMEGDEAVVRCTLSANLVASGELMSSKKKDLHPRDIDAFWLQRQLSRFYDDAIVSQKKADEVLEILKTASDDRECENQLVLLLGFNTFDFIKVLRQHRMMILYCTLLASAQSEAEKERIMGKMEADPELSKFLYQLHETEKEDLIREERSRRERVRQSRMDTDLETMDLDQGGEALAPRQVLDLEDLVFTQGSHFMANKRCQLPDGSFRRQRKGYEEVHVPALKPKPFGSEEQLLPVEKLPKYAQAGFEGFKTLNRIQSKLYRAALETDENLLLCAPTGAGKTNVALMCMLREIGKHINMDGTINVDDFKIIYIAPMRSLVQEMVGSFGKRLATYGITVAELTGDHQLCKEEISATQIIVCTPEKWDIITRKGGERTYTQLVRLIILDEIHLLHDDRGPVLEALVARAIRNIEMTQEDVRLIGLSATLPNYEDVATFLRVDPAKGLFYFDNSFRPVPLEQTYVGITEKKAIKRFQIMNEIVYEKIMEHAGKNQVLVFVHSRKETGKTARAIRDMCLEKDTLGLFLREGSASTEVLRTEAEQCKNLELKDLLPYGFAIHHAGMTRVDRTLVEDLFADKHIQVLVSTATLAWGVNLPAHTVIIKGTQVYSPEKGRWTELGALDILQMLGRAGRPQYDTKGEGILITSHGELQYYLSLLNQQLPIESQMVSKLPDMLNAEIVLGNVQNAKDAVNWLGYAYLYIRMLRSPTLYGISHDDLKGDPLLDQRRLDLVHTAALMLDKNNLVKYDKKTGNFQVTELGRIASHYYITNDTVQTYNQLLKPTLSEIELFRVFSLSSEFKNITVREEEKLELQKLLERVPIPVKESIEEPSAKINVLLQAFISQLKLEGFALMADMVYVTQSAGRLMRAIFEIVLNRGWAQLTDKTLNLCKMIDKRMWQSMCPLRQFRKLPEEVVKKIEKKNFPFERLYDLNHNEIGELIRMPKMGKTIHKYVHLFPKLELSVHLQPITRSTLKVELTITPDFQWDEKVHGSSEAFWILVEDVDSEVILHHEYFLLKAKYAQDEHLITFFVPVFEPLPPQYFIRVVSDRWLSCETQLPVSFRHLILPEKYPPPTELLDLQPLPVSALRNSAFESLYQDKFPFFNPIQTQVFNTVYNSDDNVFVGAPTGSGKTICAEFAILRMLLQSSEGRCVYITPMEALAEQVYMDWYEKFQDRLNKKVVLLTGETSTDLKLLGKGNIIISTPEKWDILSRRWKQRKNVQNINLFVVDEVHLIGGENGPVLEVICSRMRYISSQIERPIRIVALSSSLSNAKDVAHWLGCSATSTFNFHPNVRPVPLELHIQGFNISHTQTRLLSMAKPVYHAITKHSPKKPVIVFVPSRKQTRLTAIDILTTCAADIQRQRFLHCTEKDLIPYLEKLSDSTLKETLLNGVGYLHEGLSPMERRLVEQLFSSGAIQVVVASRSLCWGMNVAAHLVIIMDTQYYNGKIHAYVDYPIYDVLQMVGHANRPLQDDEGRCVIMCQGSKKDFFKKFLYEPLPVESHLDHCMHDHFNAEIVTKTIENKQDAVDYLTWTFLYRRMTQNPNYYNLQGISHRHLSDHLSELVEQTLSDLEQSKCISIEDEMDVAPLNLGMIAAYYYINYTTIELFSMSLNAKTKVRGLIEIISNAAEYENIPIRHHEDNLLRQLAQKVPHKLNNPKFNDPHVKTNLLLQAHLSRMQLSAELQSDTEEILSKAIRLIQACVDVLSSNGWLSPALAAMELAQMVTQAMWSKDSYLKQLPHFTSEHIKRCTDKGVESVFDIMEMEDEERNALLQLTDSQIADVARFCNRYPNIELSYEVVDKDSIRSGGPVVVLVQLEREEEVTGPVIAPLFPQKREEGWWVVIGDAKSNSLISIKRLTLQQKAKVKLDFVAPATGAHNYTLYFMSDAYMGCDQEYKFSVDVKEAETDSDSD
Assay: Inhibition of full length recombinant human N-terminal His-tagged BRR2 helicase activity expressed in baculovirus infected Sf9 cells using 5'-[FITC]-UUCCCCUGCAUAAC-3'/5'-GUUAUGCAGGGGAACCAACGCAUAUCAGUGAGGAUU-3' RNA as substrate after 10 mins in presence of ATP by PAGE analysis
PROPERTY MEASURED: IC50 (nM)

SMILES CODE	OUTPUT UNIT	MEASURED NUMBER
CC(C)C[C@H]1C[C@@H](C)[C@]2(C(=O)Nc3ccc(F)cc32)N1C(=O)c1cn(Cc2ccccc2)cn1	nM	350
CC(C)C[C@H]1C[C@@H](C)[C@]2(C(=O)Nc3ccc(F)cc32)N1C(=O)c1cn(C)cn1	nM	480

----------
Experiment: Solubility of the compound at pH 6.8
Assay type: physicochemical
Settings: buffer
PROPERTY MEASURED: solubility (µg/mL)

SMILES CODE	PROPERTY MEASURED	MEASURED NUMBER
CC(C)C[C@@H]1C[C@H](C)[C@@]2(C(=O)Nc3ccc(F)cc32)N1C(=O)c1cn(Cc2ccccc2)cn1	solubility	46
CC(C)C[C@H]1C[C@@H](C)[C@]2(C(=O)Nc3ccc(F)cc32)N1C(=O)c1cn(Cc2ccccc2)cn1	solubility	45

----------
Assay: Permeability of the compound at pH 7.4 by PAMPA
Format: physicochemical
Settings: read-out: permeability
PROPERTY MEASURED: Papp (×10⁻⁶ cm/s)

SMILES CODE	OUTPUT UNIT	MEASURED NUMBER
CC(C)C[C@@H]1C[C@H](C)[C@@]2(C(=O)Nc3ccc(F)cc32)N1C(=O)c1cn(C)cn1	×10⁻⁶ cm/s	16.8
CC(C)C[C@H]1C[C@@H](C)[C@]2(C(=O)Nc3ccc(F)cc32)N1C(=O)c1cn(C)cn1	×10⁻⁶ cm/s	18.3
CC(C)C[C@H]1C[C@@H](C)[C@]2(C(=O)Nc3ccc(F)cc32)N1C(=O)c1cn(Cc2ccccc2)cn1	×10⁻⁶ cm/s	18.2
CC(C)C[C@@H]1C[C@H](C)[C@@]2(C(=O)Nc3ccc(F)cc32)N1C(=O)c1cn(Cc2ccccc2)cn1	×10⁻⁶ cm/s	19.5
